Target: Tyrosine-protein kinase receptor UFO (Homo sapiens, UniProt P30530)
Sequence (P30530 whole entry): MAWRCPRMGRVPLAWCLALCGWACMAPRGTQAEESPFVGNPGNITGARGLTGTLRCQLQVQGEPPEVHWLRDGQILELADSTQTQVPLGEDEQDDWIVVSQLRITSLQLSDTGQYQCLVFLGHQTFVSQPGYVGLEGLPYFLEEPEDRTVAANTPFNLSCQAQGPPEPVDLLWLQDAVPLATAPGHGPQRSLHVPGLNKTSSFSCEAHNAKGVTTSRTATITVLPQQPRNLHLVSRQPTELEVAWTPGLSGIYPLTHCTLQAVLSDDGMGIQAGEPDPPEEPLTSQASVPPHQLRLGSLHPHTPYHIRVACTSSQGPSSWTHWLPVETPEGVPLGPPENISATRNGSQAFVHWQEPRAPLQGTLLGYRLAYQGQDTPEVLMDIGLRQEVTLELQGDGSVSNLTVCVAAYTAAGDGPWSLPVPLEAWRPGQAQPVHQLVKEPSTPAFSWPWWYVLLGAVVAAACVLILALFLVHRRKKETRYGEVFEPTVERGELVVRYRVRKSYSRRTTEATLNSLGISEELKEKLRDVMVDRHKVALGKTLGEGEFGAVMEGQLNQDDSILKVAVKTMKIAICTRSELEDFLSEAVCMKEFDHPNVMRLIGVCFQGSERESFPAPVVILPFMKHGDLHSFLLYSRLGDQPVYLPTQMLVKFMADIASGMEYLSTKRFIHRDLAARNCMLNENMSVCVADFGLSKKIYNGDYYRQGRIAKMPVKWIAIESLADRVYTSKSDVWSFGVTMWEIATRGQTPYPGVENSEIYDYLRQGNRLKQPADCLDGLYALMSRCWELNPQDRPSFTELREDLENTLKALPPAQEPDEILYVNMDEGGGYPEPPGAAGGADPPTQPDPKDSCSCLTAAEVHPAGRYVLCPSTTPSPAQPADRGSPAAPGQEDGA
Assay: Inhibition of FLAG-tagged AXL (unknown origin) transfected in Cos-7 cells assessed as phosphorylation level incubated for 1 hr by ELISA
Assay type: cell-based
For each of the molecules below, state its pIC50.
One number for each entry, as −log10 of the molar value.

Here are 4 molecules together with their reported answers.
Cc1cc(-c2c(C#N)nn(C)c2C)ccc1-c1nnc(N(C)Cc2ccc3nccn3c2)o1; 5.20
Cc1cc(-c2c(C)nn(C)c2C)ccc1-c1nnc(N(C)Cc2ccc3ncc(-c4cnn(CCN(C)C)c4)n3c2)o1; 6.90
Cc1cc(-c2c(C)n[nH]c2C)ccc1-c1nnc(N(C)Cc2ccc3nccn3c2)o1; 4.80
Cc1cc(-c2c(C)nn(C)c2C)cnc1-c1nnc(N(C)Cc2ccc3ncc(-c4ccc(CN(C)C)nc4)n3c2)o1; 5.80

Now, please, on to the next molecule.
For Cc1nc(-c2c(C)nn(C)c2C)ccc1-c1nnc(N(C)Cc2ccc3nccn3c2)o1 , what is its reported pIC50?
5.00

---

Assay: Lipophilicity, log D of the compound at pH 7.4
Assay type: physicochemical
Conditions: buffer
For each of the compounds below, state its logD.

Here are 2 compounds together with their reported answers.
CN(Cc1ccc2nccn2c1)c1nnc(-c2ccc(-c3ccccc3)cc2)o1; 3.9
Cc1cc(-c2c(C)nn(C(F)F)c2C)ccc1-c1nnc(N(C)Cc2ccc3nccn3c2)o1; 4.1

Provide each entry's logD from the list below.
1. Cc1nn(C)c(C)c1-c1ccc(-c2nnc(N(C)Cc3ccc4nccn4c3)o2)c(Cl)c1
2. Cc1cc(-c2c(C)nn(C)c2C)cnc1-c1nnc(N(C)Cc2ccc3ncc(-c4ccc(CN(C)C)cc4)n3c2)o1
3. Cc1cc(-c2c(C)nn(C)c2C)ccc1-c1nnc(N(C)Cc2ccc3ncc(-c4cnn(CCN(C)C)c4)n3c2)o1
4. Cc1cc(-c2c(C)nn(C)c2C)cnc1-c1nnc(N(C)Cc2ccc3nccn3c2)o1
5. Cc1nc(-c2c(C)nn(C)c2C)ccc1-c1nnc(N(C)Cc2ccc3nccn3c2)o1
6. Cc1ccccc1-c1ccc(-c2nnc(N(C)Cc3ccc4nccn4c3)o2)cc1
7. CN(Cc1ccc2nccn2c1)c1nnc(-c2ccc(-c3ccccc3F)cc2)o1

[3.3, 2.9, 3.5, 2.8, 2.5, 4.7, 4.4]
